- measured-target: T1, Lup an 1 (Lupinus angustifolius (by the …, UniProt F5B8W3))
- T1 construct: Lup an 1, lupin β-conglutin, a 7S seed storage globulin of the vicilin-like proteins; found by LC-MS/MS of the ~55 kDa band immunocaptured from crude lupine extract; UniProt F5B8W3.1; size distribution printed as 55 to 61 kDa; Never purified: it stood in a crude lupine protein extract in every experiment; Seen as a band of ~55 kDa; also called lupin β-conglutin; lupine allergen Lup an 1; source: …
- T1 sequence (F5B8W3 31-637): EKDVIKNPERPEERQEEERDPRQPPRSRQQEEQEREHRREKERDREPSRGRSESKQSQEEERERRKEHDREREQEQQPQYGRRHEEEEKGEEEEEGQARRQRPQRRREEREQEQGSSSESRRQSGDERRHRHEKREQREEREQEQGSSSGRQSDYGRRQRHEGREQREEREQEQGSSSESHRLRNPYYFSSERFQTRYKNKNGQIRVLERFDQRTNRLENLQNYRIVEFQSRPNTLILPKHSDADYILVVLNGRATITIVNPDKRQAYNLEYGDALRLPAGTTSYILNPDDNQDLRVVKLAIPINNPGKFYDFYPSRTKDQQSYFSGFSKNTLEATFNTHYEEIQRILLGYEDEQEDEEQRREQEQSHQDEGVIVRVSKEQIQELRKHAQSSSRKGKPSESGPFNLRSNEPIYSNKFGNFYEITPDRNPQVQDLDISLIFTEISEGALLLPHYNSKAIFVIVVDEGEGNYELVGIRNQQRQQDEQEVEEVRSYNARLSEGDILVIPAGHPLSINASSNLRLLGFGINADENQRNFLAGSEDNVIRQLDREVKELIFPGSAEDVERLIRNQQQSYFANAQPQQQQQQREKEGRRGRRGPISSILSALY
- procedure-summary: ELISA; crude lupine extract (50 μg/mL) coated overnight at 4 °C; Nbs serially diluted in PBS, 1 h at room temperature; detected by mouse anti-His IgG and HRP goat anti-mouse IgG; apparent affinity = concentration at half of the maximum signal
- condition-notes: one partner purified
outcome-measure: pEC50
Here pEC50 is given on a logarithmic scale as minus log10 of the concentration in mol/L.

[Q] Could you please provide reported pEC50 for Nb B163 (His- and HA-tagged) (VHH, also called Nb163; source: E. coli WK6 (pMECS), periplasmic, purified (IMAC, SEC)) VHH: QVQLQESGGGLAQAGGSLTLSCAASGRTFSIPTMGWFRQAPGKEREFVAAIGRTTAYTGSVKGRFTISRDSAKNTVSLQMNSLNIEDTGVYYCASSQSPWSSPPLTENMYAYWGQGTQVTVSS ? Thanks!
[A] 7.35

[Q] Could you please provide reported pEC50 for Nb B157 (His- and HA-tagged) (VHH, also called Nb157; source: E. coli WK6 (pMECS), periplasmic, purified (IMAC, SEC)) VHH: QVQLQESGGGLVQAGGSLRLSCEASGRTNTKYAWGWFRQAPGKEREFVASINWSGTLINYADSVKGRFTISRDDAKNTVYLEMSSLRPEDTAVYSCAVRYYTGTYYYTTSPDNYKHWAQGTQVTVSS ? Thanks!
[A] 6.17

[Q] Could you please provide reported pEC50 for Nb B187 (His- and HA-tagged) (VHH, From an immune alpaca library raised against crude lupine protein extract; also called Nb187; B187HA; source: E. coli WK6 (pMECS), periplasmic, purified (IMAC, SEC)) VHH: QVQLQESGGGLVQAGGSLRLSCAASGRTFSGARMGWFRQAPGKEREFVAAIRWITGSTYYTDSVKGRFTISRDIAKNTQYLQMNSLKPEDTARYYCAAGEYYGGSYSDTEKYDYWGQGTQVTVSS ? Thanks!
[A] 7.85

[Q] Could you please provide reported pEC50 for Nb B50 (His- and HA-tagged) (VHH, also called Nb50; source: E. coli WK6 (pMECS), periplasmic, purified (IMAC, SEC)) VHH: QVQLQESGGGLVQAEGSLRLSCTVSGRTFSRDAMGWFRRPPGKEREFVAAISWNGASTSYADSVKGRFTVSRDNAKNTSLLQMNSLKPEDTAVYYCATYWSSAIPPLAAATSATYWGQGTQVTVSS ? Thanks!
[A] 7.80
